# Tested On: human TLR7 (Homo sapiens, UniProt Q9NYK1)
# Construct: host or cells: HEK-Blue cells (HEK293-derived reporter line)
# Sequence (Q9NYK1 27-1049): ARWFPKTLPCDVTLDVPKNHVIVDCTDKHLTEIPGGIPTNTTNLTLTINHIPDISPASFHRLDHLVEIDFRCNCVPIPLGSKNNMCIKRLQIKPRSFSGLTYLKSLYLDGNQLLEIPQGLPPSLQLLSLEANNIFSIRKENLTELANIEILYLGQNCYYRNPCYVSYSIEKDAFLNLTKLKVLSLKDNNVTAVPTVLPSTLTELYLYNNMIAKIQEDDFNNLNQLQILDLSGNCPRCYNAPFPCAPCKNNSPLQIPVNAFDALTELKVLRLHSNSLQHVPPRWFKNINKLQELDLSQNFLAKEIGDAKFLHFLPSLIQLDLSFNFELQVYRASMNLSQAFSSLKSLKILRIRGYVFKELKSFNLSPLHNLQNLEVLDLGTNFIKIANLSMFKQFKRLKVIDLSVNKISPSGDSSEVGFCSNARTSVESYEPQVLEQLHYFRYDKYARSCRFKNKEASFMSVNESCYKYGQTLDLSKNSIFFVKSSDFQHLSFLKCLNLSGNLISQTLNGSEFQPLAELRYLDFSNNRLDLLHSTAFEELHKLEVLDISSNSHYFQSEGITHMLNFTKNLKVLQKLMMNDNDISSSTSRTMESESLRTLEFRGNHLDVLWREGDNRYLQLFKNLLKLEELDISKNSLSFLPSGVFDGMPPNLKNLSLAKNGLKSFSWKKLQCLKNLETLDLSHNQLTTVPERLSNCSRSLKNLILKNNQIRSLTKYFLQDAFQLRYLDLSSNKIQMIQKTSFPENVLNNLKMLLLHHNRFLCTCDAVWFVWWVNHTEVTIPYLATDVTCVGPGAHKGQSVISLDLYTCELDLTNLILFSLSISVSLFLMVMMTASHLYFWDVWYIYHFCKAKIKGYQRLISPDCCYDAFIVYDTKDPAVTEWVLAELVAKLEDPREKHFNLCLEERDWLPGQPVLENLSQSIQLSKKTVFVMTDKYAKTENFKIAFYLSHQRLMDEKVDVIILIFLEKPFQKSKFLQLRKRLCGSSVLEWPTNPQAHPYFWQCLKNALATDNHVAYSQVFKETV
# Assay Text: TLR7 inhibition reporter assay (HEK-Blue cells, SEAP reporter, gardiquimod stimulation)
# Type: cell-based
# Run Conditions: HEK-Blue cells overexpressing human TLR7, SEAP reporter, gardiquimod 7.5 μM
pIC50: −log10 of the molar value.
compounds and their reported pIC50
Endpoint Name: pIC50

{"columns": ["Compound", "Endpoint Name", "Reported Measurement"],
 "data": [
  ["CC(C)c1c(-c2ccc3nnnn3c2)[nH]c2ccc(C3CCN(CC(=O)N(C)C)CC3)cc12", "pIC50", "> 7.00"],
  ["CNC(=O)CN1CCC(c2ccc3[nH]c(-c4cc(CO)c5nccn5c4)c(C(C)C)c3c2)CC1", "pIC50", "> 7.00"],
  ["OCc1c(-c2ccnc3[nH]ncc23)[nH]c2ccc(C3CCNCC3)cc12", "pIC50", "4.30 to 6.00"],
  ["CC(C)c1c(-c2ccnc3[nH]ncc23)[nH]c2ccc(C3CCN(CCCN(C)C)CC3)cc12", "pIC50", "6.00 to 7.00"],
  ["CC(C)c1c(-c2ccnc3[nH]ncc23)[nH]c2ccc(C3CCN(CCN4CCCCCC4)CC3)cc12", "pIC50", "> 7.00"],
  ["CC(C)c1c(-c2ccnc3[nH]ncc23)[nH]c2cc(F)c(C3CCN(C4CCN(C(C)C)CC4)CC3)cc12", "pIC50", "> 7.00"],
  ["Cc1cc(-c2[nH]c3ccc(C4CCN(Cc5ccn(C)n5)CC4)cc3c2C(C)C)cc2cnnn12", "pIC50", "> 7.00"],
  ["COc1cc(-c2[nH]c3ccc(C4CCNCC4)cc3c2C(C)C)cn2ccnc12", "pIC50", "> 7.00"],
  ["CC(C)c1c(-c2ccc3nc(N)cn3n2)[nH]c2ccc(C3CCNCC3)cc12", "pIC50", "4.30 to 6.00"],
  ["CC(C)NC(=O)CN1CCC(c2ccc3[nH]c(-c4ccc5nccn5c4)c(C(C)C)c3c2)CC1", "pIC50", "> 7.00"],
  ["CNC(=O)CN1CCC(c2ccc3[nH]c(-c4cccn5ncnc45)c(C(C)C)c3c2)CC1", "pIC50", "6.00 to 7.00"],
  ["CNCCN1CCC(c2ccc3[nH]c(-c4ccnc5[nH]ncc45)c(C(C)C)c3c2)C(F)(F)C1 (stereo not shown)", "pIC50", "> 7.00"],
  ["CN(C)C(=O)CN1CCC(c2ccc3[nH]c(-c4cc(F)c5nccn5c4)c(CC(F)F)c3c2)CC1", "pIC50", "> 7.00"],
  ["Cc1cc(-c2[nH]c3ccc(C4CCN(CC(=O)N(C)C)CC4)cc3c2C(C)C)cc2cccnc12", "pIC50", "> 7.00"],
  ["Cc1cc2nccn2cc1-c1[nH]c2ccc(C3CCN(CC(=O)N(C)C)CC3)cc2c1C(C)C", "pIC50", "> 7.00"],
  ["Cc1cc(-c2[nH]c3ccc(C4CCN(CC(C)C)CC4)cc3c2C(C)C)cc2[nH]cnc12", "pIC50", "> 7.00"],
  ["CC(C)c1c(-c2cc(CO)c3nccn3c2)[nH]c2ccc(C3CCN(CC(=O)N(C)C)CC3)cc12", "pIC50", "> 7.00"],
  ["Cc1c(-c2ccnc3[nH]ncc23)[nH]c2ccc(C3CCN(C4CCN(C(C)C)CC4)CC3)cc12", "pIC50", "> 7.00"],
  ["Cc1cc(-c2[nH]c3ccc(C4CCN(C5CCOCC5)CC4)cc3c2C(C)C)cn2nnnc12", "pIC50", "> 7.00"],
  ["CCc1c(-c2cccc3[nH]ncc23)[nH]c2ccc(C3CCN(CC(=O)N(C)C)CC3)cc12", "pIC50", "4.30 to 6.00"],
  ["Cc1cc(-c2[nH]c3ccc(C4CCN(C5COC5)CC4)cc3c2C(C)C)cc2cnnn12", "pIC50", "> 7.00"],
  ["CC(=O)N1CCCN(CC(=O)N2CCC(c3ccc4[nH]c(-c5ccnc6[nH]ncc56)c(C(C)C)c4c3)CC2)CC1", "pIC50", "> 7.00"],
  ["Cc1cc(-c2[nH]c3ccc(C4CCN(CC(=O)N(C)C)CC4)cc3c2C(C)C)cn2nncc12", "pIC50", "6.00 to 7.00"],
  ["CCc1c(-c2ccnc3[nH]ncc23)[nH]c2ccc(C3CCN(Cc4cncs4)CC3)cc12", "pIC50", "6.00 to 7.00"],
  ["CC(C)c1c(-c2ccnc3cnn(C)c23)[nH]c2ccc(C3CCNCC3)cc12 [Example 42]", "pIC50", "4.30 to 6.00"],
  ["Cc1cc(-c2[nH]c3ccc(C4CCN(C(=O)CN5CCS(=O)(=O)CC5)CC4)cc3c2C(C)C)cn2nnnc12", "pIC50", "> 7.00"],
  ["CC(C)c1c(-c2ccnc3[nH]ncc23)[nH]c2ccc(C3CCNCC3F)cc12 (stereo not shown) [Example 172]", "pIC50", "> 7.00"],
  ["CCc1c(-c2ccnc3[nH]ncc23)[nH]c2ccc(C3CCN(C(=O)C4CCNCC4)CC3)cc12", "pIC50", "6.00 to 7.00"],
  ["Cc1c(-c2[nH]c3ccc(C4CCNCC4)cc3c2C(C)C)ccc2c1cnn2C", "pIC50", "> 7.00"],
  ["CNCCN1CCC(c2ccc3[nH]c(-c4ccc5ncccc5c4)c(C)c3c2)CC1", "pIC50", "4.30 to 6.00"],
  ["CC(C)c1c(-c2ccn3nncc3c2)[nH]c2ccc(C3CCN(CC(=O)N(C)C)CC3)cc12", "pIC50", "> 7.00"]
]}

These data points were gathered from patent US11739098B2.
